# test.protocol: Baboon PET imaging: brain uptake, kinetic analysis and SERT parameters
# Type: in vivo
# test.parameters: male, baboon, brain regions (average of all regions), intravenous; baboons; read-out: VT, average of all regions and all animals
Can you tell me Kp for the items I'm about to list?
One number for each entry.

Worked examples, 2 compounds total:
CN(C)Cc1ccccc1Sc1ccc(Br)cc1N [[^11C]DAPA] ... 47.8
CN(C)Cc1ccccc1Sc1ccc(C#N)cc1N [[^11C]DASB] ... 29.2

// moving on: another record for Kp
query: Which value of Kp has been reported for CN(C)Cc1ccccc1Sc1ccc(I)cc1N [[^11C]ADAM] in the records?
result: 42.8

###

# System: SERT
# test.protocol: Baboon PET imaging: brain uptake, kinetic analysis and SERT parameters
# Assay type: in vivo
# test.parameters: Mean ± SD of four experiments in two baboons
quantity.kind: Equilibrium specific to non-specific partition coefficient (V3″) Cingulate Cortex
Numbers only.

Provide the reported Equilibrium specific to non-specific partition coefficient (V3″) Cingulate Cortex of each entry below, same order.
1. CN(C)Cc1ccccc1Sc1ccc(Br)cc1N [[^11C]DAPA]
2. CN(C)Cc1ccccc1Sc1ccc(C#N)cc1N [[^11C]DASB]

result:
1. 0.27
2. 0.22

# batch: return Equilibrium specific to non-specific partition coefficient (V3″) Cingulate Cortex for each of the 2 molecules below
1. CN(C)Cc1ccccc1Sc1ccc(I)cc1N [[^11C]ADAM]
2. CN([11CH3])Cc1ccccc1Sc1ccc(CF)cc1N [[^11C]AFM]

result:
1. 0.30
2. 0.28

###

# test.protocol: Plasma free fraction (f1) and filter retention by ultrafiltration
# Assay type: in vitro ADME, baboon
# test.parameters: activity remaining on filter, radioligand dissolved in saline; mean ± SD of four experiments
quantity.kind: Filter retention (%)
Answers are plain numbers, in %.

Past entries and their recorded results:
CN([11CH3])Cc1ccccc1Sc1ccc(CF)cc1N [[^11C]AFM] ... 19.3
CN(C)Cc1ccccc1Sc1ccc(C#N)cc1N [[^11C]DASB] ... 19.2
CN(C)Cc1ccccc1Sc1ccc(Br)cc1N [[^11C]DAPA] ... 77.9

// moving on: another record for Filter retention
query: Which measured Filter retention value corresponds to CN(C)Cc1ccccc1Sc1ccc(I)cc1N [[^11C]ADAM] ?
result: 88.2

###

# test.protocol: Biodistribution of labeled radioligands in male Sprague-Dawley rats
# Assay type: in vivo
# test.parameters: 30 min post-injection; mean ± SD, n = 3
What % ID/g Hypothal. was measured for each of the following?
One number for each entry, in % ID/g.

Cc1ccc(Sc2ccccc2CN(C)[11CH3])c(N)c1 [[^11C]MADAM] ... 1.48
CN(C)Cc1ccccc1Sc1ccc(CC[18F])cc1N [[^18F]AFE] ... 0.41
CN(C)Cc1ccccc1Sc1ccc(CCF)cc1N [[^11C]AFE] ... 0.44
CN([11CH3])Cc1ccccc1Sc1ccc(F)cc1N [[^11C]AFA] ... 0.47

For each listed entry, give its % ID/g Hypothal..
1. CN(C)Cc1ccccc1Sc1ccc([18F])cc1N [[^18F]AFA]
2. CN(C)Cc1ccccc1Sc1ccc(C[18F])cc1N [[^18F]AFM]
3. CN([11CH3])Cc1ccccc1Sc1ccc(CF)cc1N [[^11C]AFM]

result:
0.66
0.82
1.37
